# System: MS2 coat protein
# test-summary: apparent KD of MS2 coat protein; higher = weaker reporter binding
# test-conditions: Eterna round: R107; input ligand: arginine 13.2 mM
property-measured: apparent KD of MS2 coat protein (nM)
Numbers only here, please. The scale is nM.

Take a look at these entries with their results.
GUUGUAUACUCGGCCGCCACUGAGAGAGUCAUGUGAACAUGAGGAUCACCCAUGUAAUAUAUAUACAGGACCGGGAGUGUGGUAA [4.H]
14.5
ACGUAAUGCAGAAGGAGCGUCGACCUCUUACAUGAGGAUCACCCAUGUUGCAUGGUUGUACGACAGGUAGGUCGCUGAAGUACGA [#05 Exclusion - Arginine B]
34.5

Switching to the query record.
In: Query apparent KD of MS2 coat protein on MS2 coat protein for ACAUGUUGGUGGUAUCUACGAAGGCGGAAACGAGGACCGGUACGGCCGCCACUCGGCGACAUGAGGAUCACCCAUGUGGUUAAAA [Exclusion - Tryptophan A (Freestyle 5)]
Out: 28.8

---

# System: MS2 coat protein
# test-summary: apparent KD of MS2 coat protein; higher = weaker reporter binding
# test-conditions: Eterna round: R107; input ligand: theophylline 2 mM
Assign classes using reported apparent KD of MS2 coat protein values and the ranges category 1 (below 20 nM), category 2 (20 nM to below 70 nM), category 3 (70 nM or more), please.

GCUGUUGCGGUGAGGUAUCCGGCUGUGGAAGGAGCGCGGAAGGCCGCAGGUAGGUCGCCACAUGAGGAUCACCCAUGUCGAUAUA [Aninati]
category 2
GCACGACAUGAGGAUCACCCAUGUGCAGAUACCAGUAGGAUAUCCUACCCUUGGCAGCUGAGUAGAUCUGGAGGACUAUAGGUAA [Same State Theophylline A GF9]
category 2
ACAUUUAACUGAAGGAGCGUGAUAUACAUGAGGAUCACCCAUGUGUCUUUCAUGAAUAAUUCACAGGUAGGUCGCAGACUAAUGA [JR_ExcArginiB_Sub008]
category 2
UCACGGCACUGAAGGAGCGAGUUGACAAACAUGAGGAUCACCCAUGUUAUGGGUUGUUAAUCUCAGGUAGGUCGCAGUUGUCGUG [Same State Arginine B GF 21]
category 3
AUACAUGAGGAUCACCCAUGUGAUGGCCGGCGAGGACCGGUACGGCCGCCACUCGUGAUCCGUCCCGAGAGCAAAGCUCUCGACA [Raatala]
category 3
GAUCGAUCAUAGUACGAUCGUUUUGUGGAAGGAGCGCAGAGGACUGCAGGUAGGUCGCCACAUGAGGAUCACCCAUGUCAGGAUU [XARG-A 24]
category 3

In: Textbook exercise: identify the category of the sequence given here, AUACAUGAGGAUCACCCAUGUGAUGGCCGGCGAGGACCGGUACGGCCGCCACUCGUGAUCCGUCCUGAGAGCAAAGCCCUCAGCA [Onedti] , according to its measured value.
Out: category 3

In: And the next one, AUAACAUGAGGAUCACCCAUGUAAGCUGAAGGAGCGGACGAAAGUCCAGGUAGGUCGCAGCGCUCCUUCACCUCAUGAGAAGGAG [(M1)-(M2)-(Arg1)-(Arg2)-(A)'-(M)'-(A)''_Design2] ?
Out: category 2

In: And the next one, ACAUUUAACUGAAGGAGCGUGAUAUGUACAUGAGGAUCACCCAUGUCUUACAUGUGAUAUUCACAGGUAGGUCGCAGACUAAUGA [JR_ExcArginiB_Sub004] ?
Out: category 2
